Entry source: paper PMC9101684

EXPERIMENTAL SYSTEM: HMGCoAR (catalytic domain) (Homo sapiens, UniProt P04035)
Construct: HMGCoAR (catalytic domain) (2 µL); purchased Sigma-Aldrich
Sequence (P04035 426-888 limits assumed): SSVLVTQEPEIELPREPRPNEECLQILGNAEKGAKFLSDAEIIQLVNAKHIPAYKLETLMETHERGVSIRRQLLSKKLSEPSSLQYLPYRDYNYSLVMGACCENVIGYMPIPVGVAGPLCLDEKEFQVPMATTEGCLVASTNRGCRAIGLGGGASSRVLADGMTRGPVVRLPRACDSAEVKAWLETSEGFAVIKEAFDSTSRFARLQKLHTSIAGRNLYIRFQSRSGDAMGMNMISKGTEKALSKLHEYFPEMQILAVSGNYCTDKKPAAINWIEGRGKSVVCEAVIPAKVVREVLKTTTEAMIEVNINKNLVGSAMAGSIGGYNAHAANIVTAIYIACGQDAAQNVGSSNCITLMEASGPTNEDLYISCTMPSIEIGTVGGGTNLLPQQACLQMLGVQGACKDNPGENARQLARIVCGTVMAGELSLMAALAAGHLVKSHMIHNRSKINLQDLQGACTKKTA
ASSAY PROTOCOL: HMGCoAR activity assay (NADPH oxidation, absorbance 340 nm)
Type: biochemical
STATED CONDITIONS: purified catalytic domain of HMGCoAR; H3 10-1000 μM; 37 °C; absorbance 340 nm at 0 and 10 min; three independent experiments in triplicate
Where no end group is shown, it is not given here.
VALUE KIND: IC50 (µM)
Quick reminder: number only, in µM, skip the unit.

Incoming: Request body: readout IC50, system HMGCoAR (catalytic domain) (Homo sapiens, UniProt P04035), query IGFLIIWV [H3] . Return the value.
Outgoing: 59
